Source: ChEMBL document CHEMBL3045681

EC50 reference
- Test system: C6
- Procedure Text: Cytotoxicity against Rattus norvegicus (rat) C6 cells after 4 days by cresylecth violet-staining method
- Format: functional, cell-based
- Setup Conditions: Rattus norvegicus, C6, 96 h
Quantity Kind: EC50 (nM)

* COc1cc2c(c(OC)c1)C(Cc1ccc(-c3ccccc3)cc1)NCC2 (stereo not given) | 2310
* COc1cc2c(c(OC)c1)C(Cc1ccc(-c3ccccc3)cc1)N(C(=O)OC(C)(C)C)CC2 (stereo not given) | 7540
* Oc1cc2c(cc1O)C(Cc1ccc(-c3ccccc3)cc1)NCC2 (racemic) | 1500
* COc1ccccc1-c1ccc(CC2NCCc3cc(O)cc(O)c32)cc1 (stereo not given) | 2610
* COc1cc2c(c(OC)c1)C(Cc1ccc(Br)cc1)N(C(=O)OC(C)(C)C)CC2 (stereo not given) | 10100
